The origin of these recorded values is patent US20110065762A1.

# System Name: M2(S31) (Influenza A virus, UniProt P0DOF5)
# Construct: expressed in transfected cells; host or cells: CHO cells (membrane preparation adsorbed to SSM sensors)
# Sequence (P0DOF5 whole entry): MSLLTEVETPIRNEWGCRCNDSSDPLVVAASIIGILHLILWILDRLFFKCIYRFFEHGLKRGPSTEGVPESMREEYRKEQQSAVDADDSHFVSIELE
# Experiment Summary: Cell-free electrophysiology of M2 proton channels on solid supported membranes (IonGate SURFE2R screen)
# Assay type: biochemical
# Applied Conditions: 25 μM inhibitor, activation by pH jump 7.0 to 6.0, % inhibition=100×(1−I/Io), 25 µM
Test Readout: IonGate_M2(S31)_Screen % Inhibition at 25 μM

N=C(N)NC1C2CC3CC1CC(Cl)(C3)C2 (stereo not shown) [Example 23]
B (11-50% (B))
N#CC1C2CC3CC1CC(O)(C3)C2 (stereo not shown) [Example 8]
B (11-50% (B))
